Target: human MCH-1R (Homo sapiens, UniProt Q99705)
Sequence (Q99705 whole entry): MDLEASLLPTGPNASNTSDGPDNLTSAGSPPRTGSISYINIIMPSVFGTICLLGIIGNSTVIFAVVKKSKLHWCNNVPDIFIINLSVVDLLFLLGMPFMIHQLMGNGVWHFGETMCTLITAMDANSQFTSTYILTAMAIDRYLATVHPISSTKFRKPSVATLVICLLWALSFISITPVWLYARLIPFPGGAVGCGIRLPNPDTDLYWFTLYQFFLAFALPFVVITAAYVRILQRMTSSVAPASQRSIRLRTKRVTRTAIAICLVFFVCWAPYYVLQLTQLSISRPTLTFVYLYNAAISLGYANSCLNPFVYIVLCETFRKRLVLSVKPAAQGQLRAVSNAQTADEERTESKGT
Where a SMILES comes first, the peptide text is derived from it. Bridges are numbered along the chain shown (N, C = ends).
Measured pIC50 of individual entries
When answering, recall that pIC50 equals minus log10 of the concentration in mol/L, and write that number alone.

>>> endpoint_result("CSCC[C@@H]1NC(=O)[C@@H](NC(=O)[C@@H](N)CCCNC(=N)N)CSSC[C@@H](C(N)=O)NC(=O)[C@@H]2CCCN2C(=O)[C@H](CCCNC(=N)N)NC(=O)[C@H](Cc2ccc(O)cc2)NC(=O)[C@H](C(C)C)NC(=O)[C@H](CCCNC(=N)N)NC(=O)CNC(=O)[C@H](CC(C)C)NC1=O [compound 39]")
9.89

Asked: Specify pIC50 for CC(=O)N[C@@H](CCCNC(=N)N)C(=O)N[C@H]1CSSC[C@@H](C(N)=O)NC(=O)[C@@H]2CCCN2C(=O)[C@H](CCCNC(=N)N)NC(=O)[C@H](Cc2ccc(O)cc2)NC(=O)[C@H](C(C)C)NC(=O)[C@H](CCCNC(=N)N)NC(=O)CNC(=O)[C@H](CC(C)C)NC(=O)[C@H](C)NC1=O [compound 4] (Ac-RCALGRVYRPC-NH2; disulfide 2-11) and stop.
Given back: 7.82

###

Target: human MCH-R2 (Homo sapiens, UniProt Q969V1)
Sequence (Q969V1 whole entry): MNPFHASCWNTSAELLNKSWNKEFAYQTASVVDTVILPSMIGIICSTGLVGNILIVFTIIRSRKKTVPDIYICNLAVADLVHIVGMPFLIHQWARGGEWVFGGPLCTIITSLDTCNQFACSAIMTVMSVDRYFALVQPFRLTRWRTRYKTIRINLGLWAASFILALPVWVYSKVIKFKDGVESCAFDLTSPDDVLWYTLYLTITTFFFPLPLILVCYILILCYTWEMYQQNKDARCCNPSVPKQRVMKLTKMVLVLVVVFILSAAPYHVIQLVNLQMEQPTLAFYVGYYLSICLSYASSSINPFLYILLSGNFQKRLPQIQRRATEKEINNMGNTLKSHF
Test: Aequorin bioluminescence functional assay, MCH-2R
Conditions: greater binding and/or activation at MCH-2R than at MCH-1R
Where a SMILES comes first, the peptide text is derived from it. Bridges are numbered along the chain shown (N, C = ends).
measurement-name: selective activity at MCH-2R over MCH-1R

>>> endpoint_result("CC(=O)N[C@@H](CCCNC(=N)N)C(=O)N[C@H]1CSSC[C@@H](C(N)=O)NC(=O)[C@@H]2CCCN2C(=O)[C@H](CCCNC(=N)N)NC(=O)[C@H](Cc2ccc(O)cc2)NC(=O)[C@H](C(C)C)NC(=O)[C@H](CCCNC(=N)N)NC(=O)CNC(=O)[C@H](CC(C)C)NC(=O)[C@H](C)NC1=O [compound 4] (Ac-RCALGRVYRPC-NH2; disulfide 2-11)")
"selectively active"
>>> endpoint_result("CSCC[C@@H]1NC(=O)[C@@H](NC(=O)[C@H](CCCNC(=N)N)NC(C)=O)CSSC[C@@H](C(N)=O)NC(=O)[C@@H]2CCCN2C(=O)[C@H](CCCNC(=N)N)NC(=O)[C@H](Cc2ccc(O)cc2)NC(=O)[C@H](C(C)C)NC(=O)[C@H](CCCNC(=N)N)NC(=O)[C@@H](C)NC(=O)[C@H](CC(C)C)NC1=O")
"selectively active"
>>> endpoint_result("CSCC[C@@H]1NC(=O)[C@@H](NC(=O)[C@H](CCCNC(=N)N)NC(C)=O)CSSC[C@@H](C(N)=O)NC(=O)[C@@H]2CCCN2C(=O)[C@H](CCCNC(=N)N)NC(=O)[C@H](Cc2ccc(O)cc2)NC(=O)[C@H](C(C)C)NC(=O)[C@H](C)NC(=O)CNC(=O)[C@H](CC(C)C)NC1=O [compound 23] (Ac-RCMLGAVYRPC-NH2; disulfide 2-11)")
"selectively active"

###

Target: human MCH-R2 (Homo sapiens, UniProt Q969V1)
Assay: Aequorin bioluminescence functional assay, MCH-2R
Details: Table 1; % Activation at 10 μM, aequorin functional assay
Where a SMILES comes first, the peptide text is derived from it. Bridges are numbered along the chain shown (N, C = ends). [ ]: non-standard residue; d: D form. Arg(NO2) = N=C(NCCC[C@H](N)C(=O)O)N[N+](=O)[O-]
Overview of reported MCH-2R Activation % across a group of compounds:

Consider the worked cases shown below.
>>> endpoint_result("CSCC[C@@H]1NC(=O)[C@@H](NC(=O)[C@H](CCCNC(=N)N)NC(C)=O)CSSC[C@@H](C(N)=O)NC(=O)[C@@H]2CCCN2C(=O)[C@H](CCCNC(=N)N)NC(=O)[C@H](Cc2ccc(O)cc2)NC(=O)[C@H](C(C)C)NC(=O)[C@H](CCCNC(=N)N)NC(=O)[C@@H](C)NC(=O)[C@H](CC(C)C)NC1=O [compound 13]")
"103%"
>>> endpoint_result("CSCC[C@@H]1NC(=O)[C@@H](NC(=O)[C@H](CCCNC(=N)N)NC(C)=O)CSSC[C@@H](C(N)=O)NC(=O)[C@@H]2CCCN2C(=O)[C@H](CCCNC(=N)N)NC(=O)[C@H](Cc2ccc(O)cc2)NC(=O)[C@H](C(C)C)NC(=O)[C@H](C)NC(=O)CNC(=O)[C@H](CC(C)C)NC1=O [compound 23] (Ac-RCMLGAVYRPC-NH2; disulfide 2-11)")
"36%"

Asked: Please supply the value of reported MCH-2R Activation % for the item CSCC[C@@H]1NC(=O)[C@@H](NC(=O)[C@H](CCCNC(=N)N)NC(C)=O)CSSC[C@@H](C(N)=O)NC(=O)[C@@H]2CCCN2C(=O)[C@H](CCCNC(=N)N)NC(=O)[C@H](Cc2ccc(O)cc2)NC(=O)[C@H](C(C)C)NC(=O)[C@H](CCCNC(=N)N[N+](=O)[O-])NC(=O)[C@@H](C)NC(=O)[C@H](CC(C)C)NC1=O [compound 37] (Ac-RCML[dA][Arg(NO2)]VYRPC-NH2; disulfide 2-11)
Given back: 34%

Asked: Please supply the value of reported MCH-2R Activation % for the item CSCC[C@@H]1NC(=O)[C@@H](NC(=O)[C@H](CCCNC(=N)N)NC(C)=O)CSSC[C@@H](C(N)=O)NC(=O)[C@@H]2CCCN2C(=O)[C@H](CCCNC(=N)N)NC(=O)[C@H](Cc2ccc(O)cc2)NC(=O)[C@H](C(C)C)NC(=O)[C@H](CCCNC(=N)N)NC(=O)[C@@H](CC(N)=O)NC(=O)[C@H](CC(C)C)NC1=O [compound 18]
Given back: 106%

Asked: Tell us which MCH-2R Activation % value is on record for CSCC[C@@H]1NC(=O)[C@@H](NC(=O)[C@H](CCCNC(=N)N)NC(C)=O)CSSC[C@@H](C(N)=O)NC(=O)[C@@H]2CCCN2C(=O)[C@H](CCCNC(=N)N)NC(=O)[C@H](Cc2ccc(O)cc2)NC(=O)[C@H](C(C)C)NC(=O)[C@H](CCCNC(=N)N)NC(=O)C(C)(C)NC(=O)[C@H](CC(C)C)NC1=O [compound 11]
Given back: 104%

Asked: Tell us which MCH-2R Activation % value is on record for CSCC[C@@H]1NC(=O)[C@@H](NC(=O)[C@H](CCCNC(=N)N)NC(C)=O)CSSC[C@@H](C(N)=O)NC(=O)[C@@H]2CCCN2C(=O)[C@H](CCCNC(=N)N)NC(=O)[C@H](Cc2ccc(O)cc2)NC(=O)[C@H](C(C)C)NC(=O)[C@H](CCCNC(=N)N)NC(=O)[C@H](c2ccccc2)NC(=O)[C@H](CC(C)C)NC1=O [compound 12]
Given back: 80%
